Source of measurements: patent US12077503B2

Test system: giant foxtail (Setaria faberii)
Test: Test A postemergence
Type: in vivo
Settings: 125 g ai/ha, postemergence; visual injury after approximately 10 d; 0 to 100 scale (0 no effect, 100 complete control)
Excerpt: […]

>  <COMPOUND>
O=C1NCC(c2cccc(OC(F)(F)C(F)F)c2)C1C(=O)Nc1ccccc1Cl (racemic)

>  <Plant response rating, Foxtail, Giant>
50

$$$$
>  <COMPOUND>
CC(=O)c1ccccc1NC(=O)C1C(=O)NCC1c1cccc(C(F)(F)F)c1 (racemic)

>  <Plant response rating, Foxtail, Giant>
0

$$$$
>  <COMPOUND>
O=C1NCC(c2cccc(O)c2)C1C(=O)Nc1cccc(F)c1F (racemic)

>  <Plant response rating, Foxtail, Giant>
0

$$$$
>  <COMPOUND>
O=C1NCC(c2cccc(Br)c2)C1C(=O)Nc1cccc(F)c1F (racemic)

>  <Plant response rating, Foxtail, Giant>
90

$$$$

###

Tested on: corn (Zea mays)
Experiment: Test G Pre-Emergence Protocol
Type: in vivo
Conditions: Zea mays, pre-emergence, 312 h, 15.625 g ai/ha, evaluated after 13 days, read-out: Corn damage rating (100=total damage to plant; 0=no damage to plant)
ASSAY_READOUT: plant injury at 15.625 g/ha

>  <COMPOUND>
CN1C[C@H](c2ccc(Cl)cc2)[C@@H](C(=O)Nc2ccc(F)nc2F)C1=O

>  <EXPERIMENTAL_TARGET>
corn (Zea mays)

>  <OBSERVED_MEASUREMENT>
0%

$$$$
>  <COMPOUND>
CN1C[C@@H](c2ccc(C(F)(F)F)cc2)[C@H](C(=O)Nc2cncc(F)n2)C1=O (racemic)

>  <EXPERIMENTAL_TARGET>
corn (Zea mays)

>  <OBSERVED_MEASUREMENT>
0%

$$$$
>  <COMPOUND>
COc1c(C)cc(C2CN(C)C(=O)C2C(=O)Nc2cccc(F)c2F)cc1C (stereo not drawn)

>  <EXPERIMENTAL_TARGET>
corn (Zea mays)

>  <OBSERVED_MEASUREMENT>
20%

$$$$
>  <COMPOUND>
COc1ccc(C2CN(C)C(=O)C2C(=O)Nc2cccc(F)c2F)cc1C (stereo not drawn)

>  <EXPERIMENTAL_TARGET>
corn (Zea mays)

>  <OBSERVED_MEASUREMENT>
0%

$$$$
>  <COMPOUND>
CN1C[C@H](c2ccc3ccccc3c2)[C@@H](C(=O)Nc2cccc(F)c2F)C1=O (racemic)

>  <EXPERIMENTAL_TARGET>
corn (Zea mays)

>  <OBSERVED_MEASUREMENT>
0%

$$$$
>  <COMPOUND>
CN1C[C@@H](c2ccc(C(F)(F)F)cc2)[C@H](C(=O)Nc2ccc(F)cc2C(F)(F)F)C1=O (racemic)

>  <EXPERIMENTAL_TARGET>
corn (Zea mays)

>  <OBSERVED_MEASUREMENT>
0%

$$$$

###

Test system: barnyardgrass (Echinochloa crus-galli)
Test: Test A postemergence
Type: in vivo
Conditions: Echinochloa crus-galli, post-emergence, 240 h, 125 g ai/ha, postemergence; visual injury after approximately 10 d; 0 to 100 scale (0 no effect, 100 complete control); read-out: Plant response rating, Barnyardgrass

>  <COMPOUND>
Cc1ccc([C@H]2CNC(=O)[C@@H]2C(=O)Nc2cccc(F)c2F)c(F)c1 [Compound 720]

>  <pest or weed control at 125 g/ha / %>
90

$$$$
>  <COMPOUND>
C/C=C/C1CNC(=O)C1C(=O)Nc1cccc(F)c1F (centres unmarked) [Compound 793]

>  <pest or weed control at 125 g/ha / %>
0

$$$$
>  <COMPOUND>
CN1C[C@H](c2ccc(C(F)(F)F)cc2)[C@@H](C(=O)Nc2ccc(F)c(F)c2F)C1=O [Compound 745]

>  <pest or weed control at 125 g/ha / %>
90

$$$$
>  <COMPOUND>
Cc1ccc([C@H]2CNC(=O)[C@@H]2C(=O)Nc2cccc(F)c2F)s1 [Compound 729]

>  <pest or weed control at 125 g/ha / %>
0

$$$$
>  <COMPOUND>
CS(=O)(=O)c1ccccc1NC(=O)[C@H]1C(=O)NC[C@@H]1c1ccc(OC(F)F)cc1 [Compound 787]

>  <pest or weed control at 125 g/ha / %>
30

$$$$
>  <COMPOUND>
CN1C[C@H](c2ccc(C(F)(F)F)cc2)[C@@H](C(=O)Nc2ccccc2C(F)(F)F)C1=O [Compound 726]

>  <pest or weed control at 125 g/ha / %>
90

$$$$
>  <COMPOUND>
Cc1cc([C@H]2CNC(=O)[C@@H]2C(=O)Nc2ccccc2F)ccc1F [Compound 717]

>  <pest or weed control at 125 g/ha / %>
90

$$$$
>  <COMPOUND>
CSc1ccccc1NC(=O)[C@H]1C(=O)N(C)C[C@@H]1c1cc(F)cc(F)c1 [Compound 738]

>  <pest or weed control at 125 g/ha / %>
80

$$$$

###

The following compounds are listed with their measured pest or weed control at 62.5 g/ha values.
Test system: ivy-leaved morning glory (Ipomoea hederacea)
Assay: Test G Post-Emergence Protocol
Assay type: in vivo
Conditions: Ipomoea, post-emergence, 312 h, 62.5 g ai/ha, evaluated after 13 days, read-out: Morningglory, Ivy-leaved damage rating (100=total damage to plant; 0=no damage to plant)

>  <COMPOUND>
Cc1ccc([C@H]2CN(C)C(=O)[C@@H]2C(=O)Nc2ccccc2F)cc1Cl (racemic)

>  <EXPERIMENTAL_TARGET>
ivy-leaved morning glory (Ipomoea hederacea)

>  <pest or weed control at 62.5 g/ha [%]>
10

$$$$
>  <COMPOUND>
CN1C[C@@H](c2ccc(C(F)(F)F)cc2)[C@H](C(=O)Nc2ccc(F)c(F)c2Cl)C1=O (racemic)

>  <EXPERIMENTAL_TARGET>
ivy-leaved morning glory (Ipomoea hederacea)

>  <pest or weed control at 62.5 g/ha [%]>
70

$$$$
>  <COMPOUND>
CN1C[C@@H](c2ccc(C(F)(F)F)cc2)[C@H](C(=O)Nc2cccc(F)n2)C1=O

>  <EXPERIMENTAL_TARGET>
ivy-leaved morning glory (Ipomoea hederacea)

>  <pest or weed control at 62.5 g/ha [%]>
0

$$$$
>  <COMPOUND>
CN1C[C@@H](c2ccc(C(F)(F)F)cc2)[C@H](C(=O)Nc2ccc(F)cc2C(F)(F)F)C1=O (racemic)

>  <EXPERIMENTAL_TARGET>
ivy-leaved morning glory (Ipomoea hederacea)

>  <pest or weed control at 62.5 g/ha [%]>
10

$$$$
>  <COMPOUND>
Cc1cc(NC(=O)[C@@H]2C(=O)N(C)C[C@H]2c2ccc(C(F)(F)F)cc2)sn1 (racemic)

>  <EXPERIMENTAL_TARGET>
ivy-leaved morning glory (Ipomoea hederacea)

>  <pest or weed control at 62.5 g/ha [%]>
0

$$$$
>  <COMPOUND>
CN1C[C@@H](c2ccc(C(F)(F)F)cc2)[C@@](O)(C(=O)Nc2cccc(F)c2F)C1=O (racemic)

>  <EXPERIMENTAL_TARGET>
ivy-leaved morning glory (Ipomoea hederacea)

>  <pest or weed control at 62.5 g/ha [%]>
0

$$$$
>  <COMPOUND>
CN1C[C@H](c2ccc3c(c2)CCCC3)[C@@H](C(=O)Nc2cccc(F)c2F)C1=O (racemic)

>  <EXPERIMENTAL_TARGET>
ivy-leaved morning glory (Ipomoea hederacea)

>  <pest or weed control at 62.5 g/ha [%]>
0

$$$$

###

Tested on: morningglory (Ipomoea coccinea)
Assay: Test C preemergence
Assay type: in vivo
Conditions: 125 g ai/ha, scale 0 to 100, 0 no effect, 100 complete control
ASSAY_READOUT: Plant response rating, Morningglory

>  <MOLECULE>
CN1CC(c2cccc(OC(F)F)c2)C(C(=O)Nc2ccccc2F)C1=O (centres unmarked) [Compound 618]

>  <EXPERIMENTAL_TARGET>
morningglory (Ipomoea coccinea)

>  <ASSAY_READOUT>
Plant response rating, Morningglory

>  <OBSERVED_MEASUREMENT>
10

$$$$
>  <MOLECULE>
O=C1NCC(c2cc(F)cc(Cl)c2)C1C(=O)Nc1cccc(F)c1F (centres unmarked) [Compound 492]

>  <EXPERIMENTAL_TARGET>
morningglory (Ipomoea coccinea)

>  <ASSAY_READOUT>
Plant response rating, Morningglory

>  <OBSERVED_MEASUREMENT>
20

$$$$
>  <MOLECULE>
CN1CC(c2cccc(OC(F)(F)C(F)F)c2)C(C(=O)Nc2ccc(F)cc2F)C1=O (centres unmarked) [Compound 393]

>  <EXPERIMENTAL_TARGET>
morningglory (Ipomoea coccinea)

>  <ASSAY_READOUT>
Plant response rating, Morningglory

>  <OBSERVED_MEASUREMENT>
10

$$$$
>  <MOLECULE>
Cc1ccc(C2CN(C)C(=O)C2C(=O)Nc2cccc(F)c2F)cc1 (centres unmarked) [Compound 662]

>  <EXPERIMENTAL_TARGET>
morningglory (Ipomoea coccinea)

>  <ASSAY_READOUT>
Plant response rating, Morningglory

>  <OBSERVED_MEASUREMENT>
30

$$$$
>  <MOLECULE>
CN1CC(c2cccc(C(F)(F)F)c2)C(C(=O)Nc2cccc(F)c2F)C1=O (centres unmarked) [Compound 636]

>  <EXPERIMENTAL_TARGET>
morningglory (Ipomoea coccinea)

>  <ASSAY_READOUT>
Plant response rating, Morningglory

>  <OBSERVED_MEASUREMENT>
35

$$$$
